Data credit: the nanobody polyreactivity screen of Harvey et al. (2022)

assay: yeast display, Sf9 membrane polyspecificity reagent, FACS + sequencing; frameworks hold sequencing errors

| sequence.content | polyreactivity (PSR sort gate) |
| --- | --- |
| QDQLVESGGGLVQAGGSLRLSCAASGSIFYRNAMGWYRQAPGKERELVAAISSDGSTNYADSVKGRFTISRDNAKNTVYLQMNSLKPEDTAVYYCAAPWTQILDYWGQGTQVTVSS | low polyreactivity |
| QVQLVESGGGLVQAGGSLRLSCAASGNTFIYYAMGWYRQAPGKERELVAAITWSGGSTYYADSVKGRFTISRDNAKNTVYLQMNSLKPEDTAVYYCAKFTHNYYYWGQGTQVTVSS | high polyreactivity |
| QVQLVESGGGLVQAGGSLRLSCAASGFIFTTYDMGWYRQAPGKEMELVAAITGSGGRTYYADSVKGRFTISRDNAKNTVYLQMNSLKPEDTAVYYCAARWGNVRFRYGYWGQGTQVTVSS | high polyreactivity |
| QVQLVESGGGLVQAGGSLRLSCAASGRIFYGNTMGWYRPAPGKERELVAAITGSGTSTYYADSVKGRFTISRDNAKNTVYLQMNSLKPEDTAVYYCNADRPVYVDYINGGYGYWGQGTQVTVSS | low polyreactivity |
| QVQLVESGGGLVQAGGSLRLSCAASGRIFGENAMGWYRQAPGKEWEFVAVISISDASTYYADSVKGRFTISRDNAKNSVDFQMNSLKPEDTAVYYCAADLTDFLYVASDYWGQGTQVTVSS | low polyreactivity |

* * *

assay: yeast display, Sf9 membrane polyspecificity reagent, FACS + sequencing; frameworks hold sequencing errors

| sequence.content | polyreactivity (PSR sort gate) |
| --- | --- |
| QVQLVESVRGVVQAGGSLRLSCASSVFTFRWYAMGWFRQAPGKESELVADITRHGGSTYYADSVKGRFTISRDNAKNTVYLQMNSLKPEDTAVYYCAADLSWYDWEDDYWGQGTQVTVSS | low polyreactivity |
| QVQLVESGGGLVQAGGRLRLSCAASGRIFLGYTMGSYRQAPWKERELVAAISKSGDSTYYADAVKGRFTFSSDNAKYTVFLQMNSLKPEDTAVYYCATRGYQSLRHQGTDDYWGQGTQVTVSS | high polyreactivity |
| QVQLVESGGGLVQAGGRLRLSCAASGSTLIRNVMGWYRQAPGKERELVAAINTRGTTTYYADSVKGRFTISRDKAKNTVYLQMNSLKPEDTAVSYCAARTPHYSYGYWGQGTHVTVSS | high polyreactivity |
| QVQLVESGGGIVQAGGSHRVICAASGRIFRRYTMGWYRQATGKERDLVATITWDGVSTYYADSVKGRFTISRDNAKKTDYLQMNSLKPEDTAGYYCAARRVYLVGGRYDSWGQGTQVTVSS | high polyreactivity |
| QVQLVESGGCLVQAGGSLRLSSAASGFTFRRYTMGWYRQAPGKVRELVAAISRSGGSTFYADSVKGRFTISRDNAKNTVYLQLNSLKPEDSAVYYCNAGRTYTALNGDYWGHGTQVTVSS | high polyreactivity |
| QVQLVESGGGLVQAGGSLRLSCAASGFTFRWYAMGWYRQAPGKERELVAAISTTGGSTYYADSVKGRFTISRDNAKNTVYFQLNSLKPEDTAVYYCNVYSGRYWESHKFDSWGQGTQVTVSS | high polyreactivity |
| QVQLVESGGGLVQAGGSLRLSCAASGRTFGWNAMGWYRQAPGKERELVAAISLRGTSTYYADSVKGRFTISRDNAKNTVYLQMNSLKPEDTAVYYCAARGRNGVNYWGQGTQVTVSS | high polyreactivity |
| QVQLVESGGGLVQAGGSLRLSCAASGFSFVYYAMGWYRQAPGKERELVATISGNGGRTYYADSVKGRFTISRDNAKNTVYLQMNSLKPEDTAVYYCAALLYIRSVGYDYWGQGTQVTVSS | low polyreactivity |
| QVQLVESGGGLVQAGGSLRLICAASVSTFRDHAMGWYRQAPAKERDLVAAIDIDSSTYYADSVKGRFTISLDNAKNSVYLHMNSLKPEDTAVYYCNKDASGGTTTEVDYWGQGTQVTVSS | low polyreactivity |
| QVQLVESGGGLVQAGGSLRLTCAASGSIFVNNAMGWYRQAPGKERELVAAISSRSSRTFYADSVKGRFTISRDNAKNTVYLQMNSLKPEDTAVYYCAVKKRAPDGDYWGQGTQVTVSS | high polyreactivity |
| QDQLVESGGRLVQAGGSLRLSCAASGRTFYYYAMGWYRQAPGKERELVARIRSGGSTNYADSVKGRFTISRDNAKNSVYLQMNSLKPEDTAVYYCNALGAKGYVKGFDYWGQGTQVTVSS | low polyreactivity |

* * *

test: yeast display, Sf9 membrane polyspecificity reagent, FACS + sequencing; frameworks hold sequencing errors
property.label: polyreactivity (PSR sort gate)

| sequence.content | experimental.result |
| --- | --- |
| QVQLVESVGGLVQAGGSLRLSCAASGFTFGYYAMGWYRQAPGKERELVASISRSGGSTNYADSVKGRFTISRDNAKNTVYLQMNSLKPEDTAVYYCAKPLWDPKYDYWGQGTQVTVSS | high polyreactivity |
| QVQLVESGGGLVQAGGSLRLSCAASGFTFGYYSMGWYSQAPGKERELVAAISSGGNTNYADSVKGRFTISRDNAKNTVYLQMNSLKPEDTAVYYCNSRSWRYYKTYSAFNYWGQGTQVTVSS | high polyreactivity |

* * *

experiment: yeast display, Sf9 membrane polyspecificity reagent, FACS + sequencing; frameworks hold sequencing errors
property.label: polyreactivity (PSR sort gate)

| sequence.content | property.label | experimental.result |
| --- | --- | --- |
| QVQLVESGGGIVQAGGSLRLSCAASGRSFGIYAMGWYRQAPGKERELVAGITRGDRTFAYSVKGRFTISRDNAKNTVYLQMNSLKPEDTAVYYCNADVYPYKLALPAGMGYWGQGTQVTVSS | polyreactivity (PSR sort gate) | high polyreactivity |
| QVQRVESGGGLVQAGGSLRLSCAASRITFSVNALRWYRHAPGKDRELVASISSGGSTNYADSVQGGFTISRDNAKNTVDLQMNSLKQEDTAVYYCNADVGFGSMDYCGQGTQVTVSS | polyreactivity (PSR sort gate) | low polyreactivity |
| QVQLLESGGGLVQAGGSLRLSCAASGSIINRYAMGLYRQAPGKERELVAAISWRGGSTYYADSVKGRFTISRDNAKNTVYLQMNSLKPEDTAVYYCNKVSYVKSGYWGQGTQVTVSS | polyreactivity (PSR sort gate) | high polyreactivity |
| QVQLVESGGGLVQAGGSLRFSCAASGINFYFNAMGWYRQAPGKERELVAVITSGGSTNYADSVKGRFTISRDNAKNTVYLQMNSLKPEDTAVYYCATDKSYSSWSAQYVYWGQGTQVTVSS | polyreactivity (PSR sort gate) | low polyreactivity |
| QVQLVESGGGLVQAGGSLRLSCAASGRTFAPYAMGWYRQARGQERELVATITRTGRTNYADSVKGRFTISRDNAKNTVYLQMNSLKPEDTAVYYCAAYTYYGFYYWGQGTQVTVSS | polyreactivity (PSR sort gate) | high polyreactivity |
| QVQLVESGGGLVQAGGSVRLSFAASGSSIFGNFMGWYRQAPGKERELVAGITNRGGSTYFADSVKGRFTISRDNAKITVYLQMNSLKPEDTAVYYCAARKNHSGYGRGNYWGQGTQVTVSS | polyreactivity (PSR sort gate) | high polyreactivity |
| QVQLEESGGGLVQAGGSLRLICAASGRIFWLNAMGWYRQAPGKEREFVASITYGSDSTYYADSVKGRFTISRDNAKNTVYLQMNSLKPEDTAVYYCNREGWHYGPYVYWGQGTQVTVSS | polyreactivity (PSR sort gate) | low polyreactivity |
| QVQLVETGAGLVQAGGRLRLSCDSSGSTFYVYYMGWYRQSPGKERELVAAISSGAGSTYYADSVKGRFTISRDNAKNTVYLQMNSLTRKIPRSSTALLFTVNGGGSRSHDYWAQGTQVTVSS | polyreactivity (PSR sort gate) | low polyreactivity |
| QVQLVESGGGLVQAGGSLRLSCAASGGILDTYALGWYRQAPGKERELVAAITSGGNTNYADSVKGRFTISRDNAKNTVYLQMNSLKPEDTAVYYCAALYTVSYLTSPVSYRYDYWGQGSQVTVSS | polyreactivity (PSR sort gate) | low polyreactivity |
| QVQLVESGGGLVQAGGSLRLSCAASGITFTGYAMVWYRQAPGKERELVAAIRGGGNTYYADSVKGRFTISRDNAKNTVYLQMNSLKPEDTAVYYCAADDIAHQYFVSTVDVGMDYWGQGTQVTVSS | polyreactivity (PSR sort gate) | low polyreactivity |
| QVQLVESGGGLVQAGGSLRLSCAASGYIFGVYAMGWYRQAPGKERELVAVISSGDRTNYADSVKGRFTISRDNAKNTVYLQMNSLKPEDTAVYYCAADGRSPSYYGYDHWGQGTQVTVSS | polyreactivity (PSR sort gate) | low polyreactivity |
| QVQLVESGGGLVQAGGSLRLSCAAYGRIFYYNAMGWFRQAPGKERELVASIDNGGSTNYADSVKGRFTISRDNAKNTVYLQMNSLKPEDTAVYYCNVDLYYEVSHVFLYEYDYWGQGTQVTVSS | polyreactivity (PSR sort gate) | low polyreactivity |
| QVQLVESGGGLVQAGGSLRLRCAASGRTVVYYAMGWSRPAAGKETEFVATITSSGGSTYYADSVKGRFTISRDNAKNSVYLQMNSLKPEDTAVNYCAASPNIGYSKVSKYYYRGQGTQVTVSS | polyreactivity (PSR sort gate) | high polyreactivity |
| QVQLVESGGGLVQAGGSLRLSCAASGSIFVRYAMGGYRQAPGKERELVASIRSRGDSTYYADSVKGRFTISRDNAKNTVYLQMISLKPEDTAVYFFADRRYPPRMDYWGQGTQVTVSS | polyreactivity (PSR sort gate) | high polyreactivity |
| QVQIVESGGGLVQAGGSLRLSCAASGFTFGHYAMGWYRQAPGKERELVAAISYSGVRTYYADSVKGRFTISRDNAKNTVYLQMNSLKPEDTAVYYCNKYPAHYQTRRYDYWGHGTQVTVSS | polyreactivity (PSR sort gate) | high polyreactivity |
| QVQLVESGGGLVQAGGSLRLSCAASGYTFGHYVMGWYRQAPGKERELVAAISRSGGSTYYADSVKGRFTISRDNAKNTVYLQMNSLKPEDTAVYYCARGRIGGGAPGDKSSLNYYYWGQGTQVTVSS | polyreactivity (PSR sort gate) | high polyreactivity |
| QVQLVESGGGLVQAGGSLRLSCAASGYIFYANAMGWYRQAPGKERELVASISTGGNTNYADSVKGRFTISRDNAKNTVYLQMKSLKPEDTAVYYCAVRSTVPYLWRTPVTRDYWGQGTQVTVSS | polyreactivity (PSR sort gate) | low polyreactivity |
| QVQLVESGGGLVQAGGSLRLSCAATGRIFHRYAMGWYRQAPGKEREFVAAITYSTGTTYYADSVKGRFTISRDNAKNTVYLQMNSLKPEDTAVYYCAKVSRFWHKSWFAYGYDYWGQGTQVTVSS | polyreactivity (PSR sort gate) | low polyreactivity |
| QVHLVESGGGLVQAGGSLRLSCAASGSTFRGYGMGWYRQAPGKERELVAAISWRAASTYYADSVKGRFTISRDNAKNTVYLQMNSLKPEDTAVYYCAARYSFSSSTRYYYWGQGTQVTVSS | polyreactivity (PSR sort gate) | high polyreactivity |
| QVQLVESGGGLVQAGGSLRLSCAASGNTFYGYTMGWYIQAPGKDRELVAAISGRGGSTTYADSVKGRFTISRDNAKNTVYLQMNSLNPEDTAVYYCAATYVYIRTRFYYWGQGTQVTVSS | polyreactivity (PSR sort gate) | high polyreactivity |
| QVQLVESGGGLVQAGGSLRLSCAASGFTFPSYPMGWYRQAPGKETELVAVISWGGTSTYYADSVKGRFTISRDNAKNTVYLQMNSLKPEDTAVYYCNRPSRYASTSRGYGYWGQGTQVTVSS | polyreactivity (PSR sort gate) | high polyreactivity |
